These measurements were taken from PubChem BioAssay (NCI).

test system: A549/ATCC NSCLC; experiment: NCI-60 one-dose screen, 48 h; conditions: 10 µM unless noted
This is part of a sample that, as a whole, favours compounds with a hit. Of some 83,000 tested, about 20% had one in any assay. Activity calls are given as the source filed them. Rule for the calls: active = growth percent below 10; inactive = the rest.
In this exercise, the only acceptable responses are Y = active, N = inactive

Solved cases below.
CCN1CCN(CC(=O)N2c3cccc4cccc(c34)N(C(=O)CN3CCN(CC)CC3)C2c2cn(-c3ccccc3)nc2-c2cccc([N+](=O)[O-])c2)CC1 | N
Cc1nn(-c2ccc(Cl)cc2)c2ncnc(N/N=C/c3cccc([N+](=O)[O-])c3)c12 | N
COc1ccncc1S(=O)(=O)NC(=O)Nc1ccc(Cl)c(Cl)c1 | N
CC(C)(C)OC(=O)NC(CSCc1ccccc1)C(=O)ON1C(=O)CCC1=O (stereo unspecified) | N
O=S(=O)(NCCNc1nccc(-c2c(-c3ccc(O)cc3)nc3sccn23)n1)c1cccc2ccccc12 | N

Asked: Give the logged outcome of this assay for the following compound: CCC(=O)OC1=CN2C(=NC(c3ccc(N)cc3)=CC2c2cc(OC)c(OC)c(OC)c2)S1 (stereo unspecified)
Given back: N

Asked: Call for entry COc1ccc(C2C=C(c3ccc(OC)c(OC)c3)N=C3SC=C(C)N32)c(Br)c1 (stereo unspecified) :
Given back: N

Asked: Hi, sorry to bother you, what did the test record for COc1cc(/C=C/C(=O)c2ccc(Nc3ncnc4cc(OC)c(OC)cc34)cc2)cc(OC)c1 ?
Given back: N

Asked: What did the test return for COC(=O)[C@]12CC[C@@H](C)[C@H](C)[C@@H]1C1=CC[C@@H]3[C@@]4(C)C(C=O)=C[C@@](C)(COC(=O)c5ccco5)[C@@H]4[C@H](O)C[C@@]3(C)[C@]1(C)CC2 ?
Given back: Y

Asked: Recorded call for COc1ccc2[nH]c(C(=O)OCc3ccc4c(Cl)cc(Cl)c(O)c4n3)cc2c1 ?
Given back: Y

Asked: Entry Oc1ccc(Cl)cc1-c1cc(-c2ccc(F)cc2)n[nH]1 : call = ?
Given back: N

----------
Tested on: ACHN renal
Test: NCI-60 one-dose screen, 48 h
Conditions: 10 µM unless noted
Method: Growth inhibition of the ACHN human tumor cell line is measured as a screen for anti-cancer activity. Cells are grown in 96 well plates and exposed to the test compound for 48 hours. Compounds are tested at a single concentration, which is 10^-5 M for most compounds. The reported endpoint is percent growth (GI% or GIPRCNT), where numbers from 0 - 100% represent growth inhibition, and numbers from -100% - 0 represent cell death. For example, a value of 40 represents 60% growth inhibition. […]
This is part of a sample that, as a whole, favours compounds with a hit. Of some 83,000 tested, about 20% had one in any assay. Active and inactive are the calls of the source. The calls were made as follows: active = growth percent below 10; inactive = the rest.
// one of 1 for active, -1 for inactive, no free text

// known answers, use as guide
O=C1CCCCC1(c1ccccc1)c1ccccc1 | -1
c1ccc(-c2nc(N3CCNCC3)c3nc(-c4ccccc4)oc3n2)cc1 | 1
COc1ccc(/C=N\NC(=O)CN2CCN(c3cc4c(cc3F)c(=O)c(C(=O)N/N=C/c3ccc(OC)c(OC)c3)cn4C3CC3)CC2)cc1OC | -1

Okay, next one:
Asked: Hi, do you know how CCN(CC)CCOC(=O)C(c1ccccc1)(c1ccccc1)C(C)C came out in this test?
Given back: -1
